Tested on: MvfR-regulated small molecules in PA14
Test: Production of HAQs, 2-AA, DHQ and AA in PA14 cultures (LC-MS)
Settings: PA14, 50µM inhibitor
Threshold check on % Production PQS: at or above 90% gives Fulfilled, strictly below gives Not fulfilled.

The following compounds have reported results that may help.
N#Cc1ccc(NC(=O)CC(=O)Nc2ccc(C(=O)C(F)(F)F)cc2)cc1 = Fulfilled
N#Cc1ccc(NC(=O)CCNc2ccc(F)cc2)cc1 = Fulfilled
Cc1cc(F)ccc1NCC(=O)Nc1cccc(C#N)c1 = Fulfilled

Dear colleague, could you confirm whether Cc1cc(F)ccc1NCC(=O)Nc1ccc(C#N)cc1 has % Production PQS at or above 90%?
Not fulfilled

Dear colleague, could you confirm whether O=C(CC(=O)Nc1ccc(Oc2ccccc2)cc1)Nc1ccc(Br)cc1 has % Production PQS at or above 90%?
Fulfilled

Dear colleague, could you confirm whether Cc1cc(F)ccc1CCNC(=O)c1ccc(C#N)cc1 has % Production PQS at or above 90%?
Fulfilled

Dear colleague, could you confirm whether O=C(CC(=O)Nc1ccc([N+](=O)[O-])cc1)Nc1ccc(Oc2ccccc2)cc1 has % Production PQS at or above 90%?
Not fulfilled

Dear colleague, could you confirm whether CS(=O)(=O)Nc1ccc(NC(=O)CC(=O)Nc2ccc(C#N)cc2)cc1 has % Production PQS at or above 90%?
Fulfilled

Dear colleague, could you confirm whether N#Cc1ccc(NC(=O)CC(=O)Nc2cccc(Cl)c2)cc1 has % Production PQS at or above 90%?
Fulfilled

Dear colleague, could you confirm whether N#Cc1ccc(NC(=O)CC(=O)Nc2ccc(I)cc2)cc1 has % Production PQS at or above 90%?
Not fulfilled

----------
Tested on: MvfR-regulated small molecules in PA14
Test: Production of HAQs, 2-AA, DHQ and AA in PA14 cultures (LC-MS)
Details: Pseudomonas aeruginosa, PA14, read-out: % Production DHQ
Threshold check on activity at 50 µM: at or above 20% gives T, strictly below gives F.

The following molecules have reported results that may help.
N#Cc1ccc(NC(=O)CC(=O)Nc2ccc(Br)cc2)cc1 [D42] = F
N#Cc1ccc(NC(=O)CC(=O)Nc2ccc(Oc3ccccc3)cc2)cc1 [D57] = T
N#Cc1ccc(NC(=O)C(F)C(=O)Nc2ccc(Oc3ccccc3)cc2)cc1 (stereo not drawn) [D88] = F

Dear colleague, could you confirm whether N#Cc1ccc(NC(=O)CC(=O)Nc2ccc(C(F)(F)F)cc2)cc1 [D69] has activity at 50 µM at or above 20%?
F

Dear colleague, could you confirm whether N#Cc1ccc(NC(=O)CC(=O)Nc2ccc(C#N)cc2)cc1 [D43] has activity at 50 µM at or above 20%?
T

Dear colleague, could you confirm whether N#Cc1ccc(NC(=O)CC(=O)Nc2ccc(Cl)cc2)cc1 [D41] has activity at 50 µM at or above 20%?
F

Dear colleague, could you confirm whether N#Cc1ccc(NC(=O)CC(=O)Nc2ccc(C#N)c(Cl)c2)cc1 [D95] has activity at 50 µM at or above 20%?
F

----------
Test system: MvfR-regulated small molecules in PA14
Test: Production of HAQs, 2-AA, DHQ and AA in PA14 cultures (LC-MS)
Conditions: Pseudomonas aeruginosa, PA14, read-out: % Production PQS
quantity-name: activity at 50 µM

For the compound N#Cc1ccc(NC(=O)CC(=O)Nc2ccc(Br)cc2)cc1 [D42] , give its measured activity at 50 µM value.
8%
